Where do the numbers come from? From paper PMC3853718.

Assay: Plasma pharmacokinetics after 2-hour IV infusion (LC-MS/MS)
Conditions: read-out: AUC(tf) Mean; Day 1, 3.63 mg/m^2, N 7
assay.readout: AUC(0-t)
Number first, unit second.

Exam item: For the molecule "CCc1cnn2c(NCc3ccc[n+]([O-])c3)cc(N3CCCC[C@H]3CCO)nc12" , give its measured AUC(0-t) value.
Marked response: 465 ng·h/mL

###

Test: Plasma pharmacokinetics after 2-hour IV infusion (LC-MS/MS)
Settings: read-out: AUC(I) Mean; Day 15, 14 mg/m^2, N 4
assay.readout: AUC(0-inf) (ng·h/mL)
Give bare numbers, in ng·h/mL.

Exam item: For the molecule CCc1cnn2c(NCc3ccc[n+]([O-])c3)cc(N3CCCC[C@H]3CCO)nc12 [dinaciclib] , give its measured AUC(0-inf) value.
Marked response: 1180
